tested on: Klebsiella spp.; experiment: Disc diffusion antibacterial assay; settings: read-out: Diameter of Zone of Inhibition
readout-type: zone of inhibition at 100 µg/disc (mm)
# value in mm; strip the unit string

Illustrative cases are given below, each with its answer.
(Q) Need zone of inhibition at 100 µg/disc, item CC[C@H]1OC(=O)[C@H](C)[C@@H](O[C@H]2C[C@@](C)(OC)[C@@H](O)[C@H](C)O2)[C@H](C)[C@@H](O[C@@H]2O[C@H](C)C[C@H](N(C)C)[C@H]2O)[C@](C)(O)C[C@@H](C)CN(C)[C@H](C)[C@@H](O)[C@]1(C)O [Azithromycin]
(A) 37

(Q) Need zone of inhibition at 100 µg/disc, item C[C@H]1COc2c(N3CCN(C)CC3)c(F)cc3c(=O)c(C(=O)O)cn1c23 [Levofloxacin]
(A) 38

More entries:
(Q) Need zone of inhibition at 100 µg/disc, item CN[C@H](CC(C)C)C(=O)N[C@H]1C(=O)N[C@@H](CC(N)=O)C(=O)N[C@H]2C(=O)N[C@H]3C(=O)N[C@H](C(=O)N[C@H](C(=O)O)c4cc(O)cc(O)c4-c4cc3ccc4O)[C@H](O)c3ccc(c(Cl)c3)Oc3cc2cc(c3O[C@@H]2O[C@H](CO)[C@@H](O)[C@H](O)[C@H]2O[C@H]2C[C@](C)(N)[C@H](O)[C@H](C)O2)Oc2ccc(cc2Cl)[C@H]1O [Vancomycin]
(A) 43

(Q) Need zone of inhibition at 100 µg/disc, item CN(C)[C@@H]1C(O)=C(C(N)=O)C(=O)[C@@]2(O)C(O)=C3C(=O)c4c(O)cccc4[C@@](C)(O)[C@H]3C[C@@H]12 [Tetracycline]
(A) 39
